Read-out: Lipase C (LIPC), LIPC (gene 3990)
Experiment: LTEA_HepaRG_LIPC: Life Technologies and Expression Analysis (LTEA) Assay for Lipase C (LIPC) using HepaRG (AID 2283514)
Conditions: mRNA level, 48 h; actives raise or lower the signal
Active and inactive are the calls of the source. The calls were made as follows: active = hit-call score of the fitted dose curve at least 0.9, where 1 is the maximum; inactive = score below 0.9.
Outcome codes: true = active, false = inactive

>  <molecule>
CCO[Si](CCCNC(N)=O)(OCC)OCC

>  <qualitative.label>
false

$$$$
>  <molecule>
CCCCCCCCCCCO

>  <qualitative.label>
false

$$$$
>  <molecule>
NC(=O)c1nc(-c2cccc(-c3cc(F)ccc3OCC(F)(F)C(F)(F)F)c2)n[nH]1

>  <qualitative.label>
false

$$$$
>  <molecule>
CCN(CC)C(=O)c1cc(S(=O)(=O)Cc2ccccc2)c(N2CCC(c3ccccc3)CC2)cc1N(CC)CCN(C)C

>  <qualitative.label>
false

$$$$
>  <molecule>
CN(C[C@@H](CC[N+]12CCC(C3CCCCC3)(CC1)CC2)c1ccc(Cl)c(Cl)c1)C(=O)c1cc(C(F)(F)F)cc(C(F)(F)F)c1

>  <qualitative.label>
true

$$$$
>  <molecule>
Cc1occc1C(=O)Nc1ccc(C(=O)N2CCC(F)(F)/C(=C\C(=O)N3CCC(N4CCCCC4)CC3)c3ccccc32)cc1

>  <qualitative.label>
true

$$$$
>  <molecule>
COCC(C)OCC(C)OCC(C)O (stereo unspecified)

>  <qualitative.label>
false

$$$$
>  <molecule>
CN1C(=O)CC[C@H]1c1cccnc1

>  <qualitative.label>
false

$$$$
>  <molecule>
CC(C)(C)c1csc(-c2cc3cc(OCc4ccccc4CC(=O)O)ccc3o2)n1

>  <qualitative.label>
true

$$$$
>  <molecule>
CC1=CC(=O)/C(=C(/C)O)C(=O)O1

>  <qualitative.label>
false

$$$$
>  <molecule>
Clc1cc(Cl)c2c(c1)N=C1CCCCCN1C2

>  <qualitative.label>
false

$$$$

###

Read-out: Protein phosphatase 2A (PPP2R4), PTPA (gene 5524)
Assay: LTEA_HepaRG_PPP2R4: Life Technologies and Expression Analysis (LTEA) Assay for Protein phosphatase 2A (PPP2R4) using HepaRG (AID 2283522)
Conditions: mRNA level, 48 h; actives raise or lower the signal
Activity calls are given as the source filed them. How the source made its calls: active means hit-call score of the fitted dose curve at least 0.9, where 1 is the maximum; inactive means score below 0.9.
Outcome codes: active, inactive

>  <compound>
CCCC(=O)OCCC(C)C

>  <qualitative.label>
inactive

$$$$
>  <compound>
c1ccc2ccccc2c1

>  <qualitative.label>
inactive

$$$$
>  <compound>
CCCOC(=O)c1cc(O)c(O)c(O)c1

>  <qualitative.label>
inactive

$$$$
>  <compound>
CC[C@@H]1C[C@H](N(Cc2cc(C(F)(F)F)cc(C(F)(F)F)c2)C(C)=O)c2cc(C(F)(F)F)ccc2N1C(=O)OC(C)C

>  <qualitative.label>
inactive

$$$$
>  <compound>
NCc1cccc(C2CCN(C(=O)c3ccc(C#Cc4ccccc4F)o3)CC2)c1

>  <qualitative.label>
inactive

$$$$
>  <compound>
COCC(C)OCC(C)OCC(C)O (centres undefined)

>  <qualitative.label>
inactive

$$$$
>  <compound>
CCCCCCCCCCCCO

>  <qualitative.label>
inactive

$$$$
>  <compound>
Clc1ccccc1C(c1ccccc1)(c1ccccc1)n1ccnc1

>  <qualitative.label>
active

$$$$
>  <compound>
CCCCCCCCOc1ccc(C(=O)c2ccccc2)c(O)c1

>  <qualitative.label>
inactive

$$$$
>  <compound>
CCCCCCCCCCCO

>  <qualitative.label>
inactive

$$$$
>  <compound>
CC1(C)NC(=O)N(c2ccc([N+](=O)[O-])c(C(F)(F)F)c2)C1=O

>  <qualitative.label>
inactive

$$$$
>  <compound>
CC(C)(C)c1cc(/C=C2\SC(N)=NC2=O)cc(C(C)(C)C)c1O

>  <qualitative.label>
active

$$$$
>  <compound>
O=C(OCCCCCCOC(=O)c1ccccc1)c1ccccc1

>  <qualitative.label>
inactive

$$$$
>  <compound>
O=C1O[C@H]([C@@H](O)CO)C(O)=C1O

>  <qualitative.label>
inactive

$$$$
>  <compound>
C[C@]12CC[C@@H]3c4ccc(O)cc4CC[C@H]3[C@@H]1CCC2=O

>  <qualitative.label>
inactive

$$$$
>  <compound>
CCN(CC)C(=O)c1cc(S(=O)(=O)Cc2ccccc2)c(N2CCC(c3ccccc3)CC2)cc1N(CC)CCN(C)C

>  <qualitative.label>
inactive

$$$$
>  <compound>
c1ccc2n[nH]nc2c1

>  <qualitative.label>
inactive

$$$$
>  <compound>
Cc1oc2c(NC(=O)c3c(Cl)cccc3Cl)cccc2c1C(C)(C)O

>  <qualitative.label>
inactive

$$$$
>  <compound>
CCCCOC(=O)CC(CC(=O)OCCCC)(OC(C)=O)C(=O)OCCCC

>  <qualitative.label>
inactive

$$$$
>  <compound>
O=C(O)Cc1cc(I)c(Oc2ccc(O)c(I)c2)c(I)c1

>  <qualitative.label>
inactive

$$$$
>  <compound>
CCCCCc1ccc(N)cc1

>  <qualitative.label>
inactive

$$$$
>  <compound>
O=C=NCCCCCCN=C=O

>  <qualitative.label>
inactive

$$$$
>  <compound>
Cc1cn([C@H]2C[C@H](N=[N+]=[N-])[C@@H](CO)O2)c(=O)[nH]c1=O

>  <qualitative.label>
inactive

$$$$
>  <compound>
CC(C)(C)c1csc(-c2cc3cc(OCc4ccccc4CC(=O)O)ccc3o2)n1

>  <qualitative.label>
active

$$$$
>  <compound>
CCCCCCCCCC(=O)O

>  <qualitative.label>
inactive

$$$$
>  <compound>
CN(C)C(=O)C1(N2CCCCC2)CCN(CC[C@@]2(c3ccc(Cl)c(Cl)c3)CN(C(=O)c3ccccc3)CCO2)CC1

>  <qualitative.label>
active

$$$$
>  <compound>
O=C1CCC(C2CCCCC2)CC1

>  <qualitative.label>
inactive

$$$$
>  <compound>
Cc1ccc2oc(CN(Cc3ccccc3)C(=O)Nc3c(F)cc(F)cc3F)c(-c3ccc(Cl)cc3)c2c1

>  <qualitative.label>
inactive

$$$$
>  <compound>
O=c1c(-c2ccc(O)cc2)coc2cc(O)cc(O)c12

>  <qualitative.label>
inactive

$$$$
>  <compound>
COc1ccc2cc(S(=O)(=O)N[C@H](CC(=O)N[C@H](Cc3ccc(CN4[C@H](C)CCC[C@@H]4C)cc3)C(=O)N(C)C(C)C)c3ccc4c(c3)OCO4)ccc2c1

>  <qualitative.label>
active

$$$$
>  <compound>
Cc1ncc(CO)c(CO)c1O

>  <qualitative.label>
inactive

$$$$
>  <compound>
COc1cc(C(=O)NC2CCN(C)CC2)ccc1Nc1ncc2c(n1)N(C1CCCC1)CC(F)(F)C(=O)N2C

>  <qualitative.label>
active

$$$$
>  <compound>
Cc1occc1C(=O)Nc1ccc(C(=O)N2CCC(F)(F)/C(=C\C(=O)N3CCC(N4CCCCC4)CC3)c3ccccc32)cc1

>  <qualitative.label>
inactive

$$$$
>  <compound>
Cc1cc(F)ccc1-c1cc(N2CC[C@@H](O)[C@H]2CO)ncc1N(C)C(=O)C(C)(C)c1cc(C(F)(F)F)cc(C(F)(F)F)c1

>  <qualitative.label>
active

$$$$
>  <compound>
O=C(Nc1ccc(Cl)cc1)Nc1ccc(Cl)c(Cl)c1

>  <qualitative.label>
active

$$$$
>  <compound>
CC1=CC(=O)/C(=C(/C)O)C(=O)O1

>  <qualitative.label>
inactive

$$$$
>  <compound>
COc1cccc([C@H](O)C2CCN(CCc3ccc(F)cc3)CC2)c1OC

>  <qualitative.label>
inactive

$$$$
>  <compound>
C[C@]12CC[C@@H]3c4ccc(O)cc4CC[C@H]3[C@@H]1CC[C@H]2O

>  <qualitative.label>
inactive

$$$$
>  <compound>
CO[C@H]1/C=C/O[C@@]2(C)Oc3c(C)c(O)c4c(O)c(c(/C=N/N5CCN(C)CC5)c(O)c4c3C2=O)NC(=O)/C(C)=C\C=C\[C@H](C)[C@H](O)[C@@H](C)[C@@H](O)[C@@H](C)[C@H](OC(C)=O)[C@@H]1C

>  <qualitative.label>
inactive

$$$$
>  <compound>
CC(=O)N1CCN(c2ccc(OC[C@H]3CO[C@](Cn4ccnc4)(c4ccc(Cl)cc4Cl)O3)cc2)CC1

>  <qualitative.label>
active

$$$$
>  <compound>
CCCCCCCCOC(=O)c1cc(O)c(O)c(O)c1

>  <qualitative.label>
inactive

$$$$
>  <compound>
O=C(O)c1ccccc1-n1cc(C(=O)O)c(=O)c2cc(Nc3c(F)cc(F)cc3Cl)c(Cl)cc21

>  <qualitative.label>
inactive

$$$$
>  <compound>
O=CCCCC=O

>  <qualitative.label>
inactive

$$$$
>  <compound>
Cc1cccc2ccccc12

>  <qualitative.label>
inactive

$$$$
